Recorded binding to C3c by entry
- testSystem: C3c (Homo sapiens, UniProt P01024)
- Sequence (P01024 23-667 limits assumed): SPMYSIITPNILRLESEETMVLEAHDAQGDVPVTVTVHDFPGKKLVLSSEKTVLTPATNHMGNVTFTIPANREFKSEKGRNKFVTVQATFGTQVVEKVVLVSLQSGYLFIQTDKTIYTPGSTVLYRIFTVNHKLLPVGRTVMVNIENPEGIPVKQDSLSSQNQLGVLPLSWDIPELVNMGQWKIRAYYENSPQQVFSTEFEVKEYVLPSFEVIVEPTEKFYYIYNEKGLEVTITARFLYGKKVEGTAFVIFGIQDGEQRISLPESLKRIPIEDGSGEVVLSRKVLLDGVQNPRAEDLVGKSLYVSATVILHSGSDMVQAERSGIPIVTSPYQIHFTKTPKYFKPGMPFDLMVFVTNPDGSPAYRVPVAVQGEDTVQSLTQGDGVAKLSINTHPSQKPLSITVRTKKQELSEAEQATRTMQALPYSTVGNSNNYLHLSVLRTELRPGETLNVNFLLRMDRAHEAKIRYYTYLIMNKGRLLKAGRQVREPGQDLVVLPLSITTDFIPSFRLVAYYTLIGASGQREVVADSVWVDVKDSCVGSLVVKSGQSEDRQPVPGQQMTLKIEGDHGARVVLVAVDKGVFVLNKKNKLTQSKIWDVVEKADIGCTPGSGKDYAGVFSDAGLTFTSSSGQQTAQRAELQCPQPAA
- Sequence (P01024 749-954 limits assumed): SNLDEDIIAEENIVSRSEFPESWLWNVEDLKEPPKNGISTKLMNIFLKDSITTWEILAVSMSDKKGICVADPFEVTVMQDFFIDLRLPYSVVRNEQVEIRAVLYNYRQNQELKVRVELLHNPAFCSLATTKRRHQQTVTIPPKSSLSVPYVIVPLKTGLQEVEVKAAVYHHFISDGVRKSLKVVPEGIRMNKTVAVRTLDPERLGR
- Sequence (P01024 1321-1663 limits assumed): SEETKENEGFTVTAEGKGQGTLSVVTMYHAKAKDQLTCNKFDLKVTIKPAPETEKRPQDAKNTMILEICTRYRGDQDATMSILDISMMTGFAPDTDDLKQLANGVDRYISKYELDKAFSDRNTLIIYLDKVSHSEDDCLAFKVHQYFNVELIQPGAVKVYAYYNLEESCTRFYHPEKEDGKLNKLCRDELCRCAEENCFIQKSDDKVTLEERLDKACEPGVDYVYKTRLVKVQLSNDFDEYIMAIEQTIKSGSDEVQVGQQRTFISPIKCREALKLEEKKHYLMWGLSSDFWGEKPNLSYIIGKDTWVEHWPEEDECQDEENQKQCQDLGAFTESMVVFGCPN
- method: Binding profile: binding to C3c
- testContext: relative to the binding of the negative control mIgG2 antibody
Give only the figure.

// below: answered molecules
Query: Give the reported binding to C3c for this molecule. 38F5: mouse anti-C3 monoclonal antibody; VH SEQ ID NO:101, VL SEQ ID NO:102 (antibody, V domains shown) VH: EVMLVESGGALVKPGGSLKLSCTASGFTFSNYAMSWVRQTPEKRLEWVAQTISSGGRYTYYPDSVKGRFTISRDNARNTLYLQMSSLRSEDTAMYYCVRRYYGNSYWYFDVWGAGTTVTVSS VL: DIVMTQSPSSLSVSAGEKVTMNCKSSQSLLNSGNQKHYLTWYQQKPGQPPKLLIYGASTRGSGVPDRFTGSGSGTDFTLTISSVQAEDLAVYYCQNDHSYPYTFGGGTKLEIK
Result: 0.45

Query: Give the reported binding to C3c for this molecule. 28C3: mouse anti-C3 monoclonal antibody; VH SEQ ID NO:99, VL SEQ ID NO:100 (antibody, V domains shown) VH: QVQLQQSGPELVKPGASVKISCKASGYAFNSCWMNWVKQRPGKGLEWIGRIYPGDGDTNYNGKFKGKATLTADKSSTTAYMQLSSLTSEDSAVYFCAREGRNYGYEDYWGQGTTLTVSS VL: DIVLTQSPASLAVSLGQRATISCKASQSVDYDGDSYMNWYQQKPGQPPKLLIYAASDLESGIPARFSGSGSGTDFTLNIHPVEEEDAATYYCQQANEDPRTFGGGTKLEIK
Result: 0.28

Read the next record carefully.
Query: Give the reported binding to C3c for this molecule. 3G8: mouse anti-C3 monoclonal antibody; VH SEQ ID NO:93, VL SEQ ID NO:94 (antibody, V domains shown) VH: EIQLQQSGAELVKPGASVKISCMASGYSFTGYNMNWVKQSHGKGLEWIGNINPYYDSTSYNQKFKGKATLTVDKSSSTAYMQLNSLTSEDSAVYYCARENYDFVGFAYWGQGTLVTVSA VL: QIVLSQSPAILSASPGEKVTMTCRASSSVSYMHWFQQKPGSSPKPWIYVTSNLASGVPPRFSGSGSGTSYSLTISRVEAEDAATYYCQQWSTNPLTFGAGTKLELK
Result: 0.22

These data points were gathered from patent US11767359B2.
